// provenance: patent US11066369B2

target: delF508-CFTR (Homo sapiens, UniProt P13569, DEL508-508); construct: functional activity of the CFTR channel (Chloride ion transport) in patient derived primary human bronchial epithelial cells; host or cells: patient-derived primary human bronchial epithelial cells (delF508-CFTR); assay: Measurement of delF508-CFTR functional activity in primary human bronchial epithelial cells (HBECs) using Multi-Transepithelial Clamp Circuit (MTECC-24) assay; format: cell-based; conditions: primary CF HBECs; test compound added 24h before assay, in the presence of potentiator; mean of at least two replicates; read-out: MTECC24 CFHBEC- EC50
Sequence (P13569 with tags, fused parts or gaps DEL508-508): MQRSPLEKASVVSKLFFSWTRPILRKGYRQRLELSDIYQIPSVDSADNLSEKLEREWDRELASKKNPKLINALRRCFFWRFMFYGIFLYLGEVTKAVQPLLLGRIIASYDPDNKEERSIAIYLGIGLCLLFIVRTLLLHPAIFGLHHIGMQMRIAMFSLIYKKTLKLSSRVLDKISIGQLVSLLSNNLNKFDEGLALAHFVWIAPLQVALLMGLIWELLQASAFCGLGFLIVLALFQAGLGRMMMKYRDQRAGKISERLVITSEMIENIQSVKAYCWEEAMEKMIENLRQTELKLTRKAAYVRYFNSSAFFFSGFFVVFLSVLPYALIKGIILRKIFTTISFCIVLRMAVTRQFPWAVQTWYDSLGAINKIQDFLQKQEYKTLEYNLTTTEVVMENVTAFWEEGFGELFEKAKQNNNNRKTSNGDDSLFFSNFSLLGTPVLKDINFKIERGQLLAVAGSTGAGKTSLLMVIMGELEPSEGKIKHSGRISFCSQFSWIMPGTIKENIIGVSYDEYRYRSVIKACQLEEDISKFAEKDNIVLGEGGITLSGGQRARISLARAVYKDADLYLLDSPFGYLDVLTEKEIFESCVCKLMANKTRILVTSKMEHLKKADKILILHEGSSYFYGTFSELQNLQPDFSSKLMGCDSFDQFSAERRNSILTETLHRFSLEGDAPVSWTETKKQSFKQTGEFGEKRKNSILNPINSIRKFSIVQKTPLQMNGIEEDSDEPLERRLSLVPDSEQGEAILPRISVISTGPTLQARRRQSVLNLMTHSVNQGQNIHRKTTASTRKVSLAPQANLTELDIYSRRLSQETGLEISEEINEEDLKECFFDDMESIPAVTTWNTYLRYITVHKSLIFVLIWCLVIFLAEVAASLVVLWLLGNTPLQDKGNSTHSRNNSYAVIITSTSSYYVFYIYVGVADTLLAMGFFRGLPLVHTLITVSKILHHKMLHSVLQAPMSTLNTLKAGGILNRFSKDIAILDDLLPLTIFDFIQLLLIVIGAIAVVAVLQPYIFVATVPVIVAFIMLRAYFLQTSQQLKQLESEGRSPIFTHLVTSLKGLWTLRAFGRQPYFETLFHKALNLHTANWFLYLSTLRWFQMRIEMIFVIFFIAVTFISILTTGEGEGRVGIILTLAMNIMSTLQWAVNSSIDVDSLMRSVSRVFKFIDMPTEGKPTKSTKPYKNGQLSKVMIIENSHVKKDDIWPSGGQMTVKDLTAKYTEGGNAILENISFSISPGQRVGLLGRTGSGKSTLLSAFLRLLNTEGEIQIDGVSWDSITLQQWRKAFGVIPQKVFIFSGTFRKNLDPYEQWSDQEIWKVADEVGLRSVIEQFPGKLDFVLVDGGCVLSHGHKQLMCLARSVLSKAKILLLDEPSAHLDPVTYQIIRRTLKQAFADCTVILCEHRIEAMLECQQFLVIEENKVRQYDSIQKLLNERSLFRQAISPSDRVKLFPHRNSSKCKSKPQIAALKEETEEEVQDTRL
Counter-ions that a name gives are not always drawn.
readout name: EC50 (nM)

Study these solved cases before continuing.
compound | readout name | observed
Cc1ccccc1-c1nc(NS(=O)(=O)c2cccc(N[C@@H]3CCOC[C@H]3O)n2)ccc1C(F)(F)F | EC50 | 3.3
Cc1ccccc1-c1nc(NS(=O)(=O)c2cccc(N3CC[C@@H](N)[C@@H](F)C3)n2)ccc1C(F)(F)F [Example 111, Hydrochloride] | EC50 | 31.8
Nc1cccc(S(=O)(=O)Nc2ccc(C(F)(F)F)c(-c3ccc(F)cc3Cl)n2)n1 | EC50 | 13.9
Cc1cccc(C)c1-c1nc(NS(=O)(=O)c2cccnc2N)ccc1Cl | EC50 | 283
Cc1cccc(C)c1-c1nc(NS(=O)(=O)c2cccc(O[C@H]3CC[C@H](C(=O)O)CC3)n2)ccc1Cl | EC50 | 84.1
Cc1ccccc1-c1nc(NS(=O)(=O)c2cccc(N3CCN(CC(F)(F)F)CC3)n2)ccc1C(F)(F)F | EC50 | 2.6

1 = COC(=O)C1CCN(c2cccc(S(=O)(=O)Nc3ccc(Cl)c(-c4c(C)cccc4C)n3)n2)CC1
2 = Cc1ccccc1-c1nc(NS(=O)(=O)c2cccc(N[C@@H]3COCC[C@@H]3O)n2)ccc1C(F)(F)F (single isomer, unassigned)
3 = CC1(C(=O)O)CCCN(c2cccc(S(=O)(=O)Nc3ccc(C(F)(F)F)c(-c4ccccc4C4CCC4)n3)n2)C1 (centres unmarked)
4 = CN[C@H]1CCN(c2cccc(S(=O)(=O)Nc3ccc(C(F)(F)F)c(-c4ccccc4C)n3)n2)C1 [Example 122, Hydrochloride]
QUERY: Rank ascending by EC50. When ranking, write the labels in the order the request describes.
RESULT: 3, 2, 4, 1

P = CC1(C(=O)O)CCN(c2cccc(S(=O)(=O)Nc3ccc(C(F)(F)F)c(-c4ccccc4C4CC4)n3)n2)CC1
Q = Cc1ccccc1-c1nc(NS(=O)(=O)c2cccc(N3CCN(C(=O)OC(C)(C)C)CC3)n2)ccc1C(F)(F)F
R = Cc1c(F)cccc1-c1nc(NS(=O)(=O)c2cccc(N3CCN(C4CC4)CC3)n2)ccc1C(F)(F)F
S = Cc1ccccc1-c1nc(NS(=O)(=O)c2cccc(OC3CC(C(=O)O)C3)n2)ccc1C(F)(F)F (mixture of isomers)
T = Cc1ccccc1-c1nc(NS(=O)(=O)c2cccc(N3CC[C@H](O)[C@H]3C)n2)ccc1C(F)(F)F
QUERY: Rank ascending by EC50. When ranking, write the labels in the order the request describes.
RESULT: R, P, T, Q, S
(R: 2 nM, P: 4.3 nM, T: 10 nM, Q: 23.3 nM, S: 64.9 nM)

P = Cc1ccccc1-c1nc(NS(=O)(=O)c2cccc(N3CC(C)(O)C3)n2)ccc1Br
Q = Cc1cccc(C)c1-c1cc(Cl)cc(NS(=O)(=O)c2cccc(N)n2)n1
R = Cc1ccccc1-c1nc(NS(=O)(=O)c2cccc(N3CCC4(CC[C@@H]4N)CC3)n2)ccc1C(F)(F)F
S = Nc1cc(S(=O)(=O)Nc2ccc(Cl)c(-c3ccccc3C(F)(F)F)n2)ccn1
QUERY: Rank ascending by EC50. When ranking, write the labels in the order the request describes.
RESULT: Q, P, R, S

1 = Nc1cccc(S(=O)(=O)Nc2ccc(C(F)(F)F)c(-c3ccccc3Cl)n2)n1
2 = COc1ccc(Cl)c(-c2nc(NS(=O)(=O)c3cccc(N4CCNCC4)n3)ccc2C(F)(F)F)c1 [Example 154, hydrochloride]
QUERY: Hey, between 1 and 2 which has a smaller measured EC50? Field: selected label. Fill in the label of the entry you choose.
RESULT: 1
(1: 5.1 nM, 2: 239 nM)
